# Tested on: A2780 ovarian carcinoma cells
# assay-notes: Sulforhodamine B antiproliferative assay, A2780
# Assay type: cell-based, human
# experimental-setup: 24 h drug exposure + 72 h recovery in drug-free medium, SRB; read-out: Antiproliferative activity (IC50) A2780 Ovarian
Would you kindly list pIC50 for each of these compounds?
One number for each entry, as −log10 of the molar value.

N.N.[Cl][Pt][Cl] [cisplatin, reference compound]	5.92
CN(C)c1ccc(N=Nc2ccccn2)cc1.Cc1ccc(C(C)C)cc1.F[P-](F)(F)(F)(F)F.[Cl][Os+] [Complex 9, [Os(Azpy-NMe2)(p-cymene)Cl]PF6]	5.74
CN(C)c1ccc(N=Nc2ccccn2)cc1.F[P-](F)(F)(F)(F)F.[Cl][Os+].c1ccc(-c2ccccc2)cc1 [Complex 11, [Os(Azpy-NMe2)(biphenyl)Cl]PF6]	5.41

// for each compound in input: emit pIC50
1. CN(C)c1ccc(N=Nc2ccccn2)cc1.Cc1ccc(C(C)C)cc1.F[P-](F)(F)(F)(F)F.[I][Os+] [Complex 10, [Os(Azpy-NMe2)(p-cymene)I]PF6]
2. Cc1ccc(C(C)C)cc1.O=S(=O)(c1ccc(F)cc1)[N]1[Os][NH][C@H](c2ccccc2)[C@H]1c1ccccc1 [Complex 4, [Os(p-cymene)(Fb-DPEN)]]
3. Cc1ccc(C(C)C)cc1.[NH-]C(c1ccccc1)C([N-]S(=O)(=O)c1ccc([N+](=O)[O-])cc1)c1ccccc1.[Os+2] (stereo not drawn) [Complex 3, [Os(p-cymene)(Ns-DPEN)]]
4. Cc1ccc(C(C)C)cc1.O=S(=O)(c1ccccc1)[N]1[Os][NH][C@H](c2ccccc2)[C@H]1c1ccccc1 [Complex 5, [Os(p-cymene)(Bs-DPEN)]]
5. Cc1ccc(S(=O)(=O)[N]2[Os][NH][C@H](c3ccccc3)[C@H]2c2ccccc2)cc1.c1ccc(-c2cccc(-c3ccccc3)c2)cc1 [Complex 8, [Os(terphenyl)(Ts-DPEN)]]
6. CS(=O)(=O)[N]1[Os][NH][C@H](c2ccccc2)[C@H]1c1ccccc1.Cc1ccc(C(C)C)cc1 [Complex 2, [Os(p-cymene)(Ms-DPEN)]]
7. Cc1ccc(C(C)C)cc1.Cc1ccc(S(=O)(=O)[N-]C(c2ccccc2)C([NH-])c2ccccc2)cc1.[Os+2] (stereo not drawn) [Complex 1, [Os(p-cymene)(Ts-DPEN)]]
8. CN(C)c1ccc(N=Nc2ccccn2)cc1.F[P-](F)(F)(F)(F)F.[I][Os+].c1ccc(-c2ccccc2)cc1 [Complex 12, [Os(Azpy-NMe2)(biphenyl)I]PF6]

Output line:
1: 6.82; 2: 4.77; 3: 4.70; 4: 4.87; 5: 5.36; 6: 4.52; 7: 4.81; 8: 6.85

Input line: // output pIC50; input Cc1ccc(S(=O)(=O)[N]2[Os][NH][C@H](c3ccccc3)[C@H]2c2ccccc2)cc1.c1ccc(-c2ccccc2)cc1 [Complex 7, [Os(biphenyl)(Ts-DPEN)]] ; system A2780 ovarian carcinoma cells
Output line: 5.19

* * *

# Tested on: Tubingen wild-type zebrafish embryos
# assay-notes: Zebrafish embryo toxicity (FET) test, TU-WT
# Assay type: in vivo
# experimental-setup: 96 h exposure, read-out: LC50 (Danio rerio) TU-WT
Would you kindly list LC50 for each of these molecules?
A complete answer gives the number and then names the unit.

Cc1ccc(S(=O)(=O)[N]2[Os][NH][C@H](c3ccccc3)[C@H]2c2ccccc2)cc1.c1ccc(-c2ccccc2)cc1 [Complex 7, [Os(biphenyl)(Ts-DPEN)]]	3.3 µM
Cc1ccc(C(C)C)cc1.Cc1ccc(S(=O)(=O)[N-]C(c2ccccc2)C([NH-])c2ccccc2)cc1.[Os+2] (centres unmarked) [Complex 1, [Os(p-cymene)(Ts-DPEN)]]	2.6 µM
CN(C)c1ccc(N=Nc2ccccn2)cc1.F[P-](F)(F)(F)(F)F.[Cl][Os+].c1ccc(-c2ccccc2)cc1 [Complex 11, [Os(Azpy-NMe2)(biphenyl)Cl]PF6]	15.8 µM
CN(C)c1ccc(N=Nc2ccccn2)cc1.F[P-](F)(F)(F)(F)F.[I][Os+].c1ccc(-c2ccccc2)cc1 [Complex 12, [Os(Azpy-NMe2)(biphenyl)I]PF6]	6.5 µM

Next, consider the following molecule.
Input line: // output LC50; input CN(C)c1ccc(N=Nc2ccccn2)cc1.Cc1ccc(C(C)C)cc1.F[P-](F)(F)(F)(F)F.[I][Os+] [Complex 10, [Os(Azpy-NMe2)(p-cymene)I]PF6] ; system Tubingen wild-type zebrafish embryos
Output line: 17 µM

* * *

# Tested on: Singapore wild-type zebrafish embryos
# Format: in vivo, Danio rerio
# experimental-setup: zebrafish embryos, 96 h exposure; read-out: LC50 (Danio rerio) SG-WT
observation-type: LC50 (µM)
Answers are plain numbers, in µM.

Recorded results for 5 molecules are shown here.
N.N.O=C([O-])C1(C(=O)[O-])CCC1.[Pt+2] [carboplatin, reference compound]	5.7
CS(=O)(=O)[N]1[Os][NH][C@H](c2ccccc2)[C@H]1c1ccccc1.Cc1ccc(C(C)C)cc1 [Complex 2, [Os(p-cymene)(Ms-DPEN)]]	3.5
CN(C)c1ccc(N=Nc2ccccn2)cc1.Cc1ccc(C(C)C)cc1.F[P-](F)(F)(F)(F)F.[Cl][Os+] [Complex 9, [Os(Azpy-NMe2)(p-cymene)Cl]PF6]	13.6
Cc1ccc(C(C)C)cc1.O=S(=O)(c1ccc(F)cc1)[N]1[Os][NH][C@H](c2ccccc2)[C@H]1c1ccccc1 [Complex 4, [Os(p-cymene)(Fb-DPEN)]]	0.7
Cc1ccc(C(C)C)cc1.O=S(=O)(c1ccccc1)[N]1[Os][NH][C@H](c2ccccc2)[C@H]1c1ccccc1 [Complex 5, [Os(p-cymene)(Bs-DPEN)]]	0.8

// for each molecule in input: emit LC50
1. CN(C)c1ccc(N=Nc2ccccn2)cc1.F[P-](F)(F)(F)(F)F.[I][Os+].c1ccc(-c2ccccc2)cc1 [Complex 12, [Os(Azpy-NMe2)(biphenyl)I]PF6]
2. CN(C)c1ccc(N=Nc2ccccn2)cc1.F[P-](F)(F)(F)(F)F.[Cl][Os+].c1ccc(-c2ccccc2)cc1 [Complex 11, [Os(Azpy-NMe2)(biphenyl)Cl]PF6]
3. Cc1ccc(C(C)C)cc1.Cc1ccc(S(=O)(=O)[N-]C(c2ccccc2)C([NH-])c2ccccc2)cc1.[Os+2] (stereo not drawn) [Complex 1, [Os(p-cymene)(Ts-DPEN)]]
4. CN(C)c1ccc(N=Nc2ccccn2)cc1.Cc1ccc(C(C)C)cc1.F[P-](F)(F)(F)(F)F.[I][Os+] [Complex 10, [Os(Azpy-NMe2)(p-cymene)I]PF6]

Output line:
6.6
16.8
2.4
24.3

* * *

Would you kindly list pIC50 for each of these compounds?
# System: MRC5 human lung fibroblasts
# assay-notes: Sulforhodamine B antiproliferative assay, MRC5
# Type: cell-based
# experimental-setup: 24 h drug exposure + 72 h recovery, SRB; non-cancer fibroblasts
One number for each entry, as −log10 of the molar value.

Recorded results for 2 compounds are shown here.
Cc1ccc(S(=O)(=O)[N]2[Os][NH][C@H](c3ccccc3)[C@H]2c2ccccc2)cc1.c1ccc(-c2ccccc2)cc1 [Complex 7, [Os(biphenyl)(Ts-DPEN)]]	4.82
Cc1ccc(C(C)C)cc1.Cc1ccc(S(=O)(=O)[N-]C(c2ccccc2)C([NH-])c2ccccc2)cc1.[Os+2] (stereo not shown) [Complex 1, [Os(p-cymene)(Ts-DPEN)]]	4.67

// for each compound in input: emit pIC50
1. Cc1ccc(C(C)C)cc1.O=S(=O)(c1ccc(F)cc1)[N]1[Os][NH][C@H](c2ccccc2)[C@H]1c1ccccc1 [Complex 4, [Os(p-cymene)(Fb-DPEN)]]
2. CN(C)c1ccc(N=Nc2ccccn2)cc1.F[P-](F)(F)(F)(F)F.[I][Os+].c1ccc(-c2ccccc2)cc1 [Complex 12, [Os(Azpy-NMe2)(biphenyl)I]PF6]
3. Cc1ccc(C(C)C)cc1.[NH-]C(c1ccccc1)C([N-]S(=O)(=O)c1ccc([N+](=O)[O-])cc1)c1ccccc1.[Os+2] (stereo not shown) [Complex 3, [Os(p-cymene)(Ns-DPEN)]]
4. CN(C)c1ccc(N=Nc2ccccn2)cc1.Cc1ccc(C(C)C)cc1.F[P-](F)(F)(F)(F)F.[I][Os+] [Complex 10, [Os(Azpy-NMe2)(p-cymene)I]PF6]
5. CS(=O)(=O)[N]1[Os][NH][C@H](c2ccccc2)[C@H]1c1ccccc1.Cc1ccc(C(C)C)cc1 [Complex 2, [Os(p-cymene)(Ms-DPEN)]]
6. N.N.[Cl][Pt][Cl] [cisplatin, reference compound]
7. CN(C)c1ccc(N=Nc2ccccn2)cc1.Cc1ccc(C(C)C)cc1.F[P-](F)(F)(F)(F)F.[Cl][Os+] [Complex 9, [Os(Azpy-NMe2)(p-cymene)Cl]PF6]

Output line:
[4.46, 6.38, 4.66, 5.35, 4.59, 4.87, 5.15]

// for each compound in input: emit pIC50
1. CN(C)c1ccc(N=Nc2ccccn2)cc1.F[P-](F)(F)(F)(F)F.[Cl][Os+].c1ccc(-c2ccccc2)cc1 [Complex 11, [Os(Azpy-NMe2)(biphenyl)Cl]PF6]
2. Cc1ccc(C(C)C)cc1.O=S(=O)(c1ccccc1)[N]1[Os][NH][C@H](c2ccccc2)[C@H]1c1ccccc1 [Complex 5, [Os(p-cymene)(Bs-DPEN)]]
3. F[P-](F)(F)(F)(F)F.Oc1ccc(N=Nc2ccccn2)cc1.[I][Os+].c1ccc(-c2ccccc2)cc1 [Complex 13, [Os(Azpy-OH)(biphenyl)I]PF6]
4. Cc1ccc(S(=O)(=O)[N]2[Os][NH][C@H](c3ccccc3)[C@H]2c2ccccc2)cc1.c1ccc(-c2cccc(-c3ccccc3)c2)cc1 [Complex 8, [Os(terphenyl)(Ts-DPEN)]]

Output line:
4.77
4.50
6.66
5.01

Entry source: paper PMC6204601
